- test_system: Histone deacetylase 8 (Homo sapiens)
- Sequence (Q9BY41 whole entry): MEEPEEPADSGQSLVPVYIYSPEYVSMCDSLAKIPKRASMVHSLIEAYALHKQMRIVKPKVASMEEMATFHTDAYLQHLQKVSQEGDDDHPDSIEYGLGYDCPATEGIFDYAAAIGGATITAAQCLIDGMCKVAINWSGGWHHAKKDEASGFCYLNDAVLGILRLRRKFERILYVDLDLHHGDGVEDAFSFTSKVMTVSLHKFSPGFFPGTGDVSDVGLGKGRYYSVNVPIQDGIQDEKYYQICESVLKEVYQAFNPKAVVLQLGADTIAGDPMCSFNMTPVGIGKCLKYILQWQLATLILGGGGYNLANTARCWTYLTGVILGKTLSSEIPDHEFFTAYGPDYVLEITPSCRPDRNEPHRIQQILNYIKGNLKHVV
- experimental_details: Inhibition of human recombinant His-tagged HDAC8 incubated for 20 mins by HDAC Glo assay
pIC50: −log10 of the molar value.
reported_metric: pIC50

                            input_smiles                           test_system  value_observed
0  COc1ccc(/C=N/NC(=O)CCCCCCCC(=O)NO)cc1  Histone deacetylase 8 (Homo sapiens)            7.22

###

- test_system: UniProtKB Q92800
- Sequence (Q92800 whole entry): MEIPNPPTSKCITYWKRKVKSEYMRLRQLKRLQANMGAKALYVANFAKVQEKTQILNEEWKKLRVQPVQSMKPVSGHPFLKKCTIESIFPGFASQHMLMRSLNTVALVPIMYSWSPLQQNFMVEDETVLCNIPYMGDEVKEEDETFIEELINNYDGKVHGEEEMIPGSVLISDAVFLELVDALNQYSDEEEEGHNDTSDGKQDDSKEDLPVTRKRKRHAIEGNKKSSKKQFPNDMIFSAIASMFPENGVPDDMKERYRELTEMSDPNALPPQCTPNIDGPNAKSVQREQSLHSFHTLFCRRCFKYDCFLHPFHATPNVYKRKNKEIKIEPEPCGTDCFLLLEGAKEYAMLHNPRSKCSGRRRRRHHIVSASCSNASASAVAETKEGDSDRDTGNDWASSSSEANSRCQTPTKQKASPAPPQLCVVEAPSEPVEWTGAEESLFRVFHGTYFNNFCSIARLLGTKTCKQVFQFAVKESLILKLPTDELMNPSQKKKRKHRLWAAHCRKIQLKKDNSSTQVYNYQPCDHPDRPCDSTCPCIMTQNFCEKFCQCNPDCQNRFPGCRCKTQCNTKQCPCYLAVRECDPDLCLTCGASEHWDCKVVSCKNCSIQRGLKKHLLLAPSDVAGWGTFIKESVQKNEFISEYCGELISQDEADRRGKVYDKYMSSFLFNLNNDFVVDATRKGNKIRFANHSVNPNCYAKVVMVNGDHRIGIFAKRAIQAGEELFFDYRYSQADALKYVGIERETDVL
reported_metric: IC50

>>> print(df.to_string())
                               input_smiles  value_observed
0  Cc1cc(C)c(CNC(=O)c2cc(-c3ccc(N4CCN(C(C)C)CC4)nc3)cc3c2cnn3C(C)C)c(=O)[nH]1       > 2500 nM

###

- test_system: Protein cereblon/Protein deacetylase HDAC6 (Homo sapiens, UniProt Q96SW2+Q9UBN7)
- experimental_details: PROTAC activity at HDAC6/CRBN in human MM.1S cells measured after 24 hrs
- Assay type: cell-based, MM1.S

compound	EC50 (nM)
CCCCN(Cc1ccc(C(=O)NO)cc1)C(=O)Nc1ccc(NC(=O)CCCc2cn(CCOCCNc3cccc4c3C(=O)N(C3CCC(=O)NC3=O)C4=O)nn2)cc1 (stereo unspecified)	3.2

###

- test_system: Protein polybromo-1/von Hippel-Lindau disease tumor suppressor (Homo sapiens, UniProt P40337+Q86U86)
- Sequence (Q86U86 whole entry): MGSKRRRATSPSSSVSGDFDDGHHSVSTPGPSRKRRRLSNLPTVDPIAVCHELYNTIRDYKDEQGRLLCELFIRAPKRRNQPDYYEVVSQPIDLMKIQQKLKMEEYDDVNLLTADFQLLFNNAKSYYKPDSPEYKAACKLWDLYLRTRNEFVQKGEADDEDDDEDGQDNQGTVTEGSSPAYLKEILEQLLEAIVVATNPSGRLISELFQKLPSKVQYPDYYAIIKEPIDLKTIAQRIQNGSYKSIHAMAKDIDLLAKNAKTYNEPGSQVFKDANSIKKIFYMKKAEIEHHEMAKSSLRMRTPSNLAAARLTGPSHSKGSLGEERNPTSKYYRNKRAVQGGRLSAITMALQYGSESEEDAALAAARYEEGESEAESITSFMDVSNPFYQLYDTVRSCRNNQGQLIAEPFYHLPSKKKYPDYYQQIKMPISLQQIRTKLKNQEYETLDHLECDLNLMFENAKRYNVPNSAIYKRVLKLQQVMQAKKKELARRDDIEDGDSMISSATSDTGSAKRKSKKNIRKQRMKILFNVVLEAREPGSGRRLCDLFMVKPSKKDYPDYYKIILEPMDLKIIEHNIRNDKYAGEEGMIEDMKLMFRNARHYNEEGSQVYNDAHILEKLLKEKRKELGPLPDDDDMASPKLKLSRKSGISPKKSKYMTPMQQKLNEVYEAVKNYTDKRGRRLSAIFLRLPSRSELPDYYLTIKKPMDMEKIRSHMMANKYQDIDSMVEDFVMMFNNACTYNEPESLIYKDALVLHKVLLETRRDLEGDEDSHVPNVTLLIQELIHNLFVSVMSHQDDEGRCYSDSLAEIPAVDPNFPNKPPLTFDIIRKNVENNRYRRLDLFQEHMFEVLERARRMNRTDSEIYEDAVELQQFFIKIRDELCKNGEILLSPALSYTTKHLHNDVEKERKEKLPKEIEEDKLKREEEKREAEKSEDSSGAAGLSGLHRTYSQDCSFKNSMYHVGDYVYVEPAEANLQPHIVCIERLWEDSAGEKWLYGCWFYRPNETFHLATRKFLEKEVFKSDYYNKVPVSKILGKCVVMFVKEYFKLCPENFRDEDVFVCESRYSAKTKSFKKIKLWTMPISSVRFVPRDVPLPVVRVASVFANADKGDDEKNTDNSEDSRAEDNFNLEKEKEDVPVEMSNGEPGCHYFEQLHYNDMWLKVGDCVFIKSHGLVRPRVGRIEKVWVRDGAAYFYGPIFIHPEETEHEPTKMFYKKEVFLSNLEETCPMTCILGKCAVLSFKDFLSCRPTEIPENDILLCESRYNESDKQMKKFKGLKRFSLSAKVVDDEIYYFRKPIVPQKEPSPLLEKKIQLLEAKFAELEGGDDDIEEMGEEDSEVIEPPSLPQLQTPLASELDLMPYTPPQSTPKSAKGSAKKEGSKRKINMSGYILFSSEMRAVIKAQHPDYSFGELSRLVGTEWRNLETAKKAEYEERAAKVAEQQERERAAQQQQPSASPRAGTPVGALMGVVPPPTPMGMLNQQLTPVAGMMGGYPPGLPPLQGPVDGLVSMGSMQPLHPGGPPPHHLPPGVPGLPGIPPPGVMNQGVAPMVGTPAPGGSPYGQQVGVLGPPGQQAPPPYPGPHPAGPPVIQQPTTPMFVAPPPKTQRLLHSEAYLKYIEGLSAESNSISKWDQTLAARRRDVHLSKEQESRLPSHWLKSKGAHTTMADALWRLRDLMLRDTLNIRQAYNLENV
- Sequence (P40337 whole entry): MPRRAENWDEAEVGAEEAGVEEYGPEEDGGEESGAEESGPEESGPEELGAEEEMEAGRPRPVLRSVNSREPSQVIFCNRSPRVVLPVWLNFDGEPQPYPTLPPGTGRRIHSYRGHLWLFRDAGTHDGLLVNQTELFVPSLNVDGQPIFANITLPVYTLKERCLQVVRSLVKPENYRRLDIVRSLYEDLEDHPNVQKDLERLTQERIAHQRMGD
- experimental_details: PROTAC activity at PBRM1/VHL in human MV4-11 cells assessed as degradation protein measured after 18 hrs
- Assay type: cell-based
reported_metric: EC50 (nM)

input_smiles	readout_units	value_observed
Cc1ncsc1-c1ccc(CNC(=O)[C@H]2C[C@H](O)CN2C(=O)[C@H](NC(=O)C2(F)CC2)C(C)(C)C)c(OCCOc2ccc(CN3CCN(c4cc(-c5ccccc5O)nnc4N)CC3)cc2)c1	nM	32

###

- test_system: von Hippel-Lindau disease tumor suppressor/Polycomb protein SUZ12 (Homo sapiens, UniProt P40337+Q15022)
- Sequence (Q15022 whole entry, one chain of several): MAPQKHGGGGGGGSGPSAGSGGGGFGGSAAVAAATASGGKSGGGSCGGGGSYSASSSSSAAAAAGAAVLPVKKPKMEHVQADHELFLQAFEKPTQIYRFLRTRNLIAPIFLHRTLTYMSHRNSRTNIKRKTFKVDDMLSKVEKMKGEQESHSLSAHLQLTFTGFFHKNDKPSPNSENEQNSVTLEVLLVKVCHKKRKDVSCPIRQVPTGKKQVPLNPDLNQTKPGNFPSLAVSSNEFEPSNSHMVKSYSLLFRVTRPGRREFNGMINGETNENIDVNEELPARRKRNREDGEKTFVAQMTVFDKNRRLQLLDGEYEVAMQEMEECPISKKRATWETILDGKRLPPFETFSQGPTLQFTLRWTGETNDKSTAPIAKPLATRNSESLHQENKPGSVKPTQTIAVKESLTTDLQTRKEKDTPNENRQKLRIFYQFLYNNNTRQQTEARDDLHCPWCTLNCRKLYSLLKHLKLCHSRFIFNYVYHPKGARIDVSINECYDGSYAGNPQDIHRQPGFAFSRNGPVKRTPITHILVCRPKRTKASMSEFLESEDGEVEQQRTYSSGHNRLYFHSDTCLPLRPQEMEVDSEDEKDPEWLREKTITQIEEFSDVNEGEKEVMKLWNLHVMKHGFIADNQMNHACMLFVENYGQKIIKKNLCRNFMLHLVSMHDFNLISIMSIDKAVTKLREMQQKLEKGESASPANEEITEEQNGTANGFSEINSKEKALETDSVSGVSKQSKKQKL
- experimental_details: PROTAC activity at PRC2 catalytic core SUZ12/VHL in human DLBCL cells measured after 24 hrs by Western blot analysis
reported_metric: EC50 (nM)

>>> df
                               input_smiles  value_observed
0  Cc1ncsc1-c1ccc(CNC(=O)[C@@H]2C[C@@H](O)CN2C(=O)[C@@H](NC(=O)CCCNC(=O)c2ccc(-c3cnc(NCc4ccco4)n4cnnc34)cc2)C(C)(C)C)cc1             590

###

- test_system: Histone deacetylase 3 (Homo sapiens)
- Sequence (O15379 whole entry): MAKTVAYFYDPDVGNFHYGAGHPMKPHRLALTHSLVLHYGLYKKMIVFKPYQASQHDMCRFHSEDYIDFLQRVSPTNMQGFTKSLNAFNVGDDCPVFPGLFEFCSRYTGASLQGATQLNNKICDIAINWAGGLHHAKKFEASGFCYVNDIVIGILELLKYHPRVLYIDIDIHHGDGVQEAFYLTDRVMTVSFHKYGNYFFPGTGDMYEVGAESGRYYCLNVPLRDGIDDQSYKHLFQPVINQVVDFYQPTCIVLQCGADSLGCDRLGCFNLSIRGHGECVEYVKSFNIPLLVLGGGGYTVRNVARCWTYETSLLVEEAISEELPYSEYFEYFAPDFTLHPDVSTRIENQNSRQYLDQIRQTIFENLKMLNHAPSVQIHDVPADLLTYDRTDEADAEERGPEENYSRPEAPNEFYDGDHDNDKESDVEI
- experimental_details: Inhibition of human recombinant HDAC3 incubated for 20 mins by HDAC Glo assay
pIC50: −log10 of the molar value.
reported_metric: pIC50

>>> print(df.to_string())
                            input_smiles  value_observed
0  COc1ccc(/C=N/NC(=O)CCCCCCCC(=O)NO)cc1            8.74

###

- test_system: Bromodomain-containing protein 2 (Homo sapiens, UniProt P25440)
- Sequence (P25440 whole entry, the tested form may be a part): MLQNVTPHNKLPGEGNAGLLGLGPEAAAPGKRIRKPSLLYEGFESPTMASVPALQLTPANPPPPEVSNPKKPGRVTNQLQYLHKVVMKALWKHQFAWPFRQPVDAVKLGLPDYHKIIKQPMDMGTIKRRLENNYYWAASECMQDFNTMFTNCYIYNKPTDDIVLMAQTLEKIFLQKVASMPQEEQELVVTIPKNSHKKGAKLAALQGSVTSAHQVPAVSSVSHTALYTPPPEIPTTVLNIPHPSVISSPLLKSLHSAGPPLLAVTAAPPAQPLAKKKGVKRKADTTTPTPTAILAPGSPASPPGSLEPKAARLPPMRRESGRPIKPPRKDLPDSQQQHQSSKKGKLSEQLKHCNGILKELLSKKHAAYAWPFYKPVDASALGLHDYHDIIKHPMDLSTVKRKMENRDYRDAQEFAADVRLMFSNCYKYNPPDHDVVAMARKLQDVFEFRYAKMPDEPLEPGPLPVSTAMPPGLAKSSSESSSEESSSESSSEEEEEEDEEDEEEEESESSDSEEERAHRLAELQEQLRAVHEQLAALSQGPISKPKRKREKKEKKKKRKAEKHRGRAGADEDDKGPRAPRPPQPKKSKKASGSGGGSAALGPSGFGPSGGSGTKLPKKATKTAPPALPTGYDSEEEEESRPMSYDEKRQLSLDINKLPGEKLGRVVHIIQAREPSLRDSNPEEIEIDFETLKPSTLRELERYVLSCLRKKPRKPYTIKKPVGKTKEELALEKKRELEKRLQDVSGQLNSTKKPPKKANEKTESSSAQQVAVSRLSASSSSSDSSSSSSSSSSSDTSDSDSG
- experimental_details: Binding affinity to BRD2 BD1 domain (unknown origin)
reported_metric: Kd (nM)

compound	value_observed
Cc1ncsc1-c1ccc([C@H](C)NC(=O)[C@@H]2C[C@@H](O)CN2C(=O)C(NC(=O)COCCCOCCNC(=O)C[C@@H]2N=C(c3ccc(Cl)cc3)c3c(sc(C)c3C)-n3c(C)nnc32)C(C)(C)C)cc1 (single isomer, unassigned)	34
CC(=O)N[C@H](C(=O)N1C[C@H](O)C[C@H]1C(=O)NCc1ccc(-c2scnc2C)cc1)C(C)(C)SCCCCCNC(=O)C[C@@H]1N=C(c2ccc(Cl)cc2)c2c(sc(C)c2C)-n2c(C)nnc21	111

###

- test_system: Protein polybromo-1/von Hippel-Lindau disease tumor suppressor (Homo sapiens, UniProt P40337+Q86U86)
- experimental_details: PROTAC activity at PBRM1/VHL in human NCI-H1568 cells assessed as degradation protein measured after 18 hrs
- Format: cell-based
reported_metric: EC50 (nM)

input_smiles	value_observed
Cc1ncsc1-c1ccc(CNC(=O)[C@H]2C[C@H](O)CN2C(=O)[C@H](NC(=O)C2(F)CC2)C(C)(C)C)c(OCCOc2ccc(CN3CCN(c4cc(-c5ccccc5O)nnc4N)CC3)cc2)c1	15.6

###

- test_system: Protein deacetylase HDAC6 (Homo sapiens, UniProt Q9UBN7)
- Sequence (Q9UBN7 whole entry): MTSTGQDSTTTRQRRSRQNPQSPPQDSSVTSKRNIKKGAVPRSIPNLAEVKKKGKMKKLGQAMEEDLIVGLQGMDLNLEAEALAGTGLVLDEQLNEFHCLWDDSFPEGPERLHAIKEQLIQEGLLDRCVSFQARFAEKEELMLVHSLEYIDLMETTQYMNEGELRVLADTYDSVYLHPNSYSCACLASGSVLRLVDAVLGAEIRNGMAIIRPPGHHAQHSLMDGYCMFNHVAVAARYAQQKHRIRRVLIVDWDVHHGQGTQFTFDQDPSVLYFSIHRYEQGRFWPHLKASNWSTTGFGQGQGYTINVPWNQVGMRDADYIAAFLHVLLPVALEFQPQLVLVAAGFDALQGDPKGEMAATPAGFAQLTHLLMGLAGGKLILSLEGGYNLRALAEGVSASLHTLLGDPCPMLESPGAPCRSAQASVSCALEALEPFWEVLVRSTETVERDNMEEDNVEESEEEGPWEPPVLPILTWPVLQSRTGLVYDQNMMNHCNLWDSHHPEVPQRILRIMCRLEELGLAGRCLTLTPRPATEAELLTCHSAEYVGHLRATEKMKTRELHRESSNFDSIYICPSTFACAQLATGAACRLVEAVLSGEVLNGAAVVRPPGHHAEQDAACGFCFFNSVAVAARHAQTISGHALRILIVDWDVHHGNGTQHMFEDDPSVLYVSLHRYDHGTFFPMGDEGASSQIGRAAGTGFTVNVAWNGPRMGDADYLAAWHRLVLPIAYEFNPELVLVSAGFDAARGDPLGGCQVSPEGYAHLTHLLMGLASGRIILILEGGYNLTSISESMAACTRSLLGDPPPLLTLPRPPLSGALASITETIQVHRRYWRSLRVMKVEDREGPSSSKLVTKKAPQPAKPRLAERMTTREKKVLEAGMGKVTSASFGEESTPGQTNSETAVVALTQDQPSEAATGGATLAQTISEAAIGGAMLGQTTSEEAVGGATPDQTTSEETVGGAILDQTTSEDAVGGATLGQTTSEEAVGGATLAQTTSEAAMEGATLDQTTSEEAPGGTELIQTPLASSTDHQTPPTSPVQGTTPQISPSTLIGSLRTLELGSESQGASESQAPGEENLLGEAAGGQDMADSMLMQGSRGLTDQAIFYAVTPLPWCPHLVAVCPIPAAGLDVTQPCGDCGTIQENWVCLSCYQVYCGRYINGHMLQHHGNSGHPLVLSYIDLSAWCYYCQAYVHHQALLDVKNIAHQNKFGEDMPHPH
- experimental_details: Inhibition of human recombinant GST-tagged HDAC6 incubated for 20 mins by HDAC Glo assay
pIC50: −log10 of the molar value.
reported_metric: pIC50

In [3]: df
Out[3]:
                            input_smiles  reported_metric  value_observed
0  COc1ccc(/C=N/NC(=O)CCCCCCCC(=O)NO)cc1            pIC50            7.45
